- target.entity: D(3) dopamine receptor (Homo sapiens, UniProt P35462)
- Sequence (P35462 whole entry): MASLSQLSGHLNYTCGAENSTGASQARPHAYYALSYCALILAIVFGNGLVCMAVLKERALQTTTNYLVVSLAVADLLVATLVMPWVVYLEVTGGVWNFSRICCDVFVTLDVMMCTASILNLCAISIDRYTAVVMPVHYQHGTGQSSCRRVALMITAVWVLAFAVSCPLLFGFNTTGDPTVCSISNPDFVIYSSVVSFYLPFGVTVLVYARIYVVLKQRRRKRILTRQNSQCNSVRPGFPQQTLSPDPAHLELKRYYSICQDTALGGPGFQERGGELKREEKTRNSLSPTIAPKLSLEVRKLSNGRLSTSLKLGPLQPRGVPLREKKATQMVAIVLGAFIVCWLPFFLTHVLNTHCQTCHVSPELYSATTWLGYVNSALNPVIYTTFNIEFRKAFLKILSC
- protocol.notes: Inhibitory activity against human dopamine receptor D3 at 10 uM
Quick reference for inhibition among some molecules
observable: inhibition (%)

- smiles.data: "CCn1nc(Cc2ccc(OC)c(OC)c2)cc1C1CCN(C[C@H]2CN([C@@H](C(=O)O)C(C)(C)C)C[C@@H]2c2cccc(F)c2)CC1"
  observable: "inhibition"
  obs.value: 44
- smiles.data: "CCn1nc(Cc2ccccc2)cc1C1CCN(C[C@H]2CN([C@@H](C(=O)O)C(C)C)C[C@@H]2c2cccc(F)c2)CC1"
  observable: "inhibition"
  obs.value: 45
- smiles.data: "CC[C@H](C)[C@H](C(=O)O)N1C[C@H](CN2CCC(c3cc(Cc4ccc(OC)c(OC)c4)nn3CC)CC2)[C@@H](c2cccc(F)c2)C1"
  observable: "inhibition"
  obs.value: 35
- smiles.data: "CCn1nc(Cc2ccc(S(C)(=O)=O)cc2)cc1C1CCN(C[C@H]2CN([C@@H](C(=O)O)C(C)(C)C)C[C@@H]2c2cccc(F)c2)CC1"
  observable: "inhibition"
  obs.value: 39
